system: RXF 393 renal; test: NCI tumour cell line growth inhibition, 48 h
*1 amine or outer side, *2 acyl side, *3 side chain or, on linkers, in order; H or OH if unused. Where a SMILES comes first, the peptide text is derived from it. Bridges are numbered along the chain shown (N, C = ends). Roman numbers before positions name the chains, in order. [ ]: non-standard residue; d: D form. Actinocin(9to1) = Cc1c2oc3c(C)ccc(C(=O)[*:1])c3nc-2c(C(=O)[*:2])c(N)c1=O; NMeV = CN[CH](C(=O)O)C(C)C; Sar = CNCC(=O)O
Recorded TGI values for a group of molecules are listed next.

# molecule, recordedValue
data = [
    ("CCO[C@@H]1OC(=O)[C@](C)(C(C)=O)[C@@H]1C", "> 100 µM"),
    ("CCOc1ccc(N=Cc2cccc3cccnc23)cc1", "> 100 µM"),
    ("CC12CCC3C(CC=C4CC(O)CCC43C)C1C/C(=C\\N1CCCC1)C2=O (stereo unspecified)", "> 100 µM"),
    ("C/C(=N/S(=O)(=O)c1ccc(Cl)c(Cl)c1)OCC(C)(C)C", "> 100 µM"),
    ("Cc1cn([C@@H]2C[C@](C)(CO)N(C)O2)c(=O)[nH]c1=O", "> 100 µM"),
]

Attention now turns to another entry.
Notebook: Cc1c2oc3c(C)ccc(C(=O)NC4C(=O)NC(Cc5ccc(O)cc5)C(=O)N5CCCC5C(=O)N(C)CC(=O)N(C)C(C(C)C)C(=O)OC4C)c3nc-2c(C(=O)NC2C(=O)NC(Cc3ccc(O)cc3)C(=O)N3CCCC3C(=O)N(C)CC(=O)N(C)C(C(C)C)C(=O)OC2C)c(N)c1=O (stereo unspecified) (I: TYP[Sar][NMeV] / II: TYP[Sar][NMeV]; ester I:1-I:C, II:1-II:C; linker I:N-II:N via Actinocin(9to1); configuration not given here) , TGI read as > 57.3 µM
